# ASSAY SYSTEM: T1, SH3 domain-containing YSC84-like 1 (SH3YL1), antigen of the antibodies (UniProt Q96HL8 1-342)
# T1 chain: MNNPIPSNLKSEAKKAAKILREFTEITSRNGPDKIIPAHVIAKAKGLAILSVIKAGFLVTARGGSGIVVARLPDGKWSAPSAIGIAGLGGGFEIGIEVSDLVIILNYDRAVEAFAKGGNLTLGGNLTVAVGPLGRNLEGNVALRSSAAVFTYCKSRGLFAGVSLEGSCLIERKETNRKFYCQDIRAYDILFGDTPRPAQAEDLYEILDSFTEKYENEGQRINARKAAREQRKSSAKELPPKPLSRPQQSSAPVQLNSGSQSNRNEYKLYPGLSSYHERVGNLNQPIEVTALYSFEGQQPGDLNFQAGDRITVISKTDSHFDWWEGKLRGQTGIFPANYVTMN
Below, each entry is listed with its recorded Kd.
The reply must contain the numeric value and, after it, the unit.

Guide cases for Kd, answers given:
INSERT INTO assay_data (binder, measured_value) VALUES
  ('5D5 antibody (antibody, V domains shown) VH: EVQLVESGGGLVQPGGSLRLSCAASGFTFSDYAMSWVRQAPGKGLEWVSSISSTGSTTYYADSVKGRFTISRDNSKNTLYLQMNSLRAEDTAVYYCAKVLYEYLYFDYWGQGTLVTVSS VL: DIQMTQSPSSLSASVGDRVTITCRASQDIRNWLNWYQQKPGKAPKLLIYAASSLQSGVPSRFSGSGSGTDFTLTISSLQPEDFATYYCQQSYSSPWTFGQGTKVEIKR', '5.49 nM'),
  ('4F9 antibody (antibody, V domains shown) VH: EVQLVESGGGLVQPGGSLRLSCAASGFTFSDYAMSWVRQAPGKGLEWVSAIKSSGSSTYYADSVKGRFTISRDNSKNTLYLQMNSLRAEDTAVYYCAKAEYEYLAFDIWGQGTLVTVSS VL: DIQMTQSPSSLSASVGDRVTITCRASQDISSWLNWYQQKPGKAPKLLIYATSTLQSGVPSRFSGSGSGTDFTLTISSLQPEDFATYYCQQSYSSPWTFGQGTKVEIKR', '3.63 nM');

Requested read-out: Kd. Entry: 4F10 antibody (antibody, V domains shown) VH: EVQLVESGGGLVQPGGSLRLSCAASGFTFSDYAMSWVRQAPGKGLEWVSAIYSTGSSTYYADSVKGRFTISRDNSKNTLYLQMNSLRAEDTAVYYCAKVGWYLFDYWGQGTLVTVSS VL: DIQMTQSPSSLSASVGDRVTITCRASQSISRYLNWYQQKPGKAPKLLIYATSRLQSGVPSRFSGSGSGTDFTLTISSLQPEDFATYYCQQSYSSPWTFGQGTKVEIKR 0.404 nM

Can you check 4H7 antibody (antibody, V domains shown) VH: EVQLVESGGGLVQPGGSLRLSCAASGFTFSTYGMSWVRQAPGKGLEWVSAISSSGGSIYYADSVKGRFTISRDNSKNTLYLQMNSLRAEDTAVYYCAKVSYPGLAFDIWGQGTLVTVSS VL: DIQMTQSPSSLSASVGDRVTITCRASQTISNYLNWYQQKPGKAPKLLIYATSSLQSGVPSRFSGSGSGTDFTLTISSLQPEDFATYYCQQSYSSPWTFGQGTKVEIKR next? 3.43 nM
